- Target or system: NT5DC2_C507 (Homo sapiens, UniProt Q9H857)
- Construct: endogenous in cells; host or cells: 22Rv1
- Sequence (Q9H857 whole entry): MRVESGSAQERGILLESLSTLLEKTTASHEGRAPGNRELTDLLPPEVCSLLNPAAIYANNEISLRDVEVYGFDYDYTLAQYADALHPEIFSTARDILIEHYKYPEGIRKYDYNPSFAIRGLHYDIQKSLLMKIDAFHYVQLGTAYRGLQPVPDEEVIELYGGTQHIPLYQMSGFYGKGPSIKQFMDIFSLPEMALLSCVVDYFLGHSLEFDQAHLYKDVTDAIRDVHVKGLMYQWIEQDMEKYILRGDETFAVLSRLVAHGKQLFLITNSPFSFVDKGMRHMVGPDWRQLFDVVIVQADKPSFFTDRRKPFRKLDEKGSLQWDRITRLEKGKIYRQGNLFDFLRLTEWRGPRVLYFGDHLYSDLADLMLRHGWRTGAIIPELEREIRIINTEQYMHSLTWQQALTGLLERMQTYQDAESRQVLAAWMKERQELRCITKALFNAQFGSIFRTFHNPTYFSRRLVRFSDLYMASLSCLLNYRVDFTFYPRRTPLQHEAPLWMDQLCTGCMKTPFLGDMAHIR
- Assay protocol: IA-DTB cysteine engagement
- Assay type: binding
- Condition label: 22Rv1 cells, 20 μM probe, 1 h, relative to DMSO
Measured quantity: % engagement NT5DC2_C507 (%)

[[record]]
compound = "C=CC(=O)N1C[C@H](c2ccc(Br)cc2)[C@@H]1C(=O)Nc1cccc2cccnc12 [MY-1B]"
measured_quantity = "% engagement NT5DC2_C507"
val = 67.25

[[record]]
compound = "C=CC(=O)N1C[C@H](c2ccc(Br)cc2)[C@H]1C(=O)Nc1cccc2cccnc12 [MY-3A]"
measured_quantity = "% engagement NT5DC2_C507"
val = 50.5

[[record]]
compound = "C=CC(=O)N1C[C@H](c2ccc(Br)cc2)[C@H]1C(=O)Nc1cccc2cccnc12 [MY-3B]"
measured_quantity = "% engagement NT5DC2_C507"
val = 57.5

[[record]]
compound = "C=CC(=O)N1C[C@@H](c2ccc(Br)cc2)[C@H]1C(=O)Nc1cccc2cccnc12 [MY-1A]"
measured_quantity = "% engagement NT5DC2_C507"
val = 83.75


---

% engagement TTC3_C109 listing for selected molecules.
- Target or system: TTC3_C109 (Homo sapiens)
- Construct: endogenous in cells; host or cells: 22Rv1
- Sequence (P53804 whole entry): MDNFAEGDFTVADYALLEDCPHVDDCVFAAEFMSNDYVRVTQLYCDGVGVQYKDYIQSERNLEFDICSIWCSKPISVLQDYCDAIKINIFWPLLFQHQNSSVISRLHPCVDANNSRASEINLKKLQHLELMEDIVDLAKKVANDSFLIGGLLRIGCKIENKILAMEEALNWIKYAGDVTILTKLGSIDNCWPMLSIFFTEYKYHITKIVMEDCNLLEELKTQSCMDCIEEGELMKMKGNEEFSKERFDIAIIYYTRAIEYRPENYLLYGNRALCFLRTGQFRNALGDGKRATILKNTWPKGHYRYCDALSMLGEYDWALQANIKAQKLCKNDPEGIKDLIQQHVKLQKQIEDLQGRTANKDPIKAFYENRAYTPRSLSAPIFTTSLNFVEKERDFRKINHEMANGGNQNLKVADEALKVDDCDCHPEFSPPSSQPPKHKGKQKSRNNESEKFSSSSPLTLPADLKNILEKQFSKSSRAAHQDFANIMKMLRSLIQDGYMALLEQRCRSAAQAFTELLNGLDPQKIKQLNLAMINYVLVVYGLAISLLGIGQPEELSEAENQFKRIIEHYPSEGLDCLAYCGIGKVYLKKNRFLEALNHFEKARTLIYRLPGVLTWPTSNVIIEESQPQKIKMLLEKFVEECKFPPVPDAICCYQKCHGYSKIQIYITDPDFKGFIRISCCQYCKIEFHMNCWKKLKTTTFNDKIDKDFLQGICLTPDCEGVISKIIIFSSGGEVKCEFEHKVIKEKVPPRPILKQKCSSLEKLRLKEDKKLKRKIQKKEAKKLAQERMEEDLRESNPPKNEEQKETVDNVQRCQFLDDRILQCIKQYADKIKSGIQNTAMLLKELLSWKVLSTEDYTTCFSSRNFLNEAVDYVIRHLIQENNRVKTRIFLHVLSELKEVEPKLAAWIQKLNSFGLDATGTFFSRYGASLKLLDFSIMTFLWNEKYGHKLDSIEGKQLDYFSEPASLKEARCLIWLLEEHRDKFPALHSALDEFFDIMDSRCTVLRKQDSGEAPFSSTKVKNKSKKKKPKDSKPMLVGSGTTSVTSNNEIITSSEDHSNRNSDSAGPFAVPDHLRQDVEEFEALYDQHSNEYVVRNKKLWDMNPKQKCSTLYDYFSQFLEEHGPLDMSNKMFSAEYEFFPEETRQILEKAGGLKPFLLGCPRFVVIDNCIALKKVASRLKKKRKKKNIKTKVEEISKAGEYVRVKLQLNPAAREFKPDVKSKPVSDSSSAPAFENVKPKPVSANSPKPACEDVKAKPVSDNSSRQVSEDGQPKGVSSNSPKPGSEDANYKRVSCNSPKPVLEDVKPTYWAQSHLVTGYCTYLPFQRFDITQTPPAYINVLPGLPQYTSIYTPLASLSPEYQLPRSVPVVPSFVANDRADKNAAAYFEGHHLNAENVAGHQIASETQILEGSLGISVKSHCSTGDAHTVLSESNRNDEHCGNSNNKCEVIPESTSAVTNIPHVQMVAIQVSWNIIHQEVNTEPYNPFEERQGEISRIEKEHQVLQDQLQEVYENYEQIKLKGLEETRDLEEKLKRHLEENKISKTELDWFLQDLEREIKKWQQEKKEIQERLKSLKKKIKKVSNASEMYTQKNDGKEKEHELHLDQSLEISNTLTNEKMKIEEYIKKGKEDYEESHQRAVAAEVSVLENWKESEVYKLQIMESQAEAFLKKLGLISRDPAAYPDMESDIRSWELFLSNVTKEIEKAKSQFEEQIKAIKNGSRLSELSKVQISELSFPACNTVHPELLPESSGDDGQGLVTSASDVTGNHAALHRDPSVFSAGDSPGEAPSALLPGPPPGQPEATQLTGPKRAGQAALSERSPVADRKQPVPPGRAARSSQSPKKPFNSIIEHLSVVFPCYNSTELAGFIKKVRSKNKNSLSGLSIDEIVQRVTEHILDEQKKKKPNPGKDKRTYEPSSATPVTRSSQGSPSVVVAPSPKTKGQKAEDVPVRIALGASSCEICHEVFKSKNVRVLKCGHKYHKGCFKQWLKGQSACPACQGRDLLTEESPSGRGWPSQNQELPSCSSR
- Assay protocol: IA-DTB cysteine engagement
- Type: binding
- Condition label: 22Rv1 cells, 20 μM probe, 1 h, relative to DMSO
- Protocol: Sample preparation: Cells (adherent: 15 cm dishes, suspension: 2 million cells/mL) were treated with electrophilic probes in situ for indicated times and concentrations, washed with ice-cold PBS, and flash frozen in liquid nitrogen. […] Whole cell lysates protein content was measured using a standard DC protein assay (Bio-Rad) and 500 μL (2 mg/mL protein content) were treated with 5 μL of 10 mM 1A-DTB (in DMSO) for 1 h at ambient temperature with occasional vortexing. […]
Measured quantity: % engagement TTC3_C109 (%)

[[record]]
molecule = "C=CC(=O)N1C[C@@H](c2ccc(Br)cc2)[C@H]1C(=O)Nc1cccc2cccnc12 [MY-1A]"
unit_annotation = "%"
val = 80.5

[[record]]
molecule = "C=CC(=O)N1C[C@H](c2ccc(Br)cc2)[C@H]1C(=O)Nc1cccc2cccnc12 [MY-3B]"
unit_annotation = "%"
val = 21.5

[[record]]
molecule = "C=CC(=O)N1C[C@H](c2ccc(Br)cc2)[C@H]1C(=O)Nc1cccc2cccnc12 [MY-3A]"
unit_annotation = "%"
val = 4.5

[[record]]
molecule = "C=CC(=O)N1C[C@H](c2ccc(Br)cc2)[C@@H]1C(=O)Nc1cccc2cccnc12 [MY-1B]"
unit_annotation = "%"
val = 54.5


---

- Target or system: NELFCD_C169 (Homo sapiens, UniProt Q8IXH7)
- Construct: endogenous in cells; host or cells: 22Rv1
- Sequence (Q8IXH7 whole entry): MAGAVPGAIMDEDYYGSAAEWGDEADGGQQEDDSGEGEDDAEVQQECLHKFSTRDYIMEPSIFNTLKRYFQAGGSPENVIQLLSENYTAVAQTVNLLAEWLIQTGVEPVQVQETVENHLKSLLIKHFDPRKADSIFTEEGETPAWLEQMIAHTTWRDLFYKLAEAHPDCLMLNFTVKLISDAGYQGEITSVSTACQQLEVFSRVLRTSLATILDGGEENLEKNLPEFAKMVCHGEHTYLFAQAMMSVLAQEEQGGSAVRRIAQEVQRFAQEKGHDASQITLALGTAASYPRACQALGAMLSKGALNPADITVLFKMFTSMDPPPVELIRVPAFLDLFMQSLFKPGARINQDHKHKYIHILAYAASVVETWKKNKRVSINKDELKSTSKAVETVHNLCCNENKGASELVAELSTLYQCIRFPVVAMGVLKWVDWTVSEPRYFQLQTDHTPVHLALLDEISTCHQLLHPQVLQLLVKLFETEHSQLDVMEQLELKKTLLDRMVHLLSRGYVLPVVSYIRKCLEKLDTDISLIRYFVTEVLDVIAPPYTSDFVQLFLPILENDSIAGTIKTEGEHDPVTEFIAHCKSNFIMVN
- Assay protocol: IA-DTB cysteine engagement
- Assay type: binding
- Condition label: 22Rv1 cells, 20 μM probe, 1 h, relative to DMSO
// values below are reported % engagement NELFCD_C169
Measured quantity: % engagement NELFCD_C169

[[record]]
compound = "C=CC(=O)N1C[C@@H](c2ccc(Br)cc2)[C@H]1C(=O)Nc1cccc2cccnc12 [MY-1A]"
val = "51%"

[[record]]
compound = "C=CC(=O)N1C[C@H](c2ccc(Br)cc2)[C@H]1C(=O)Nc1cccc2cccnc12 [MY-3A]"
val = "40.75%"

[[record]]
compound = "C=CC(=O)N1C[C@H](c2ccc(Br)cc2)[C@@H]1C(=O)Nc1cccc2cccnc12 [MY-1B]"
val = "41.75%"

[[record]]
compound = "C=CC(=O)N1C[C@H](c2ccc(Br)cc2)[C@H]1C(=O)Nc1cccc2cccnc12 [MY-3B]"
val = "69.5%"


---

- Target or system: ABCB8_C461 (Homo sapiens, UniProt Q9NUT2)
- Construct: endogenous in cells; host or cells: 22Rv1
- Sequence (Q9NUT2 26-735): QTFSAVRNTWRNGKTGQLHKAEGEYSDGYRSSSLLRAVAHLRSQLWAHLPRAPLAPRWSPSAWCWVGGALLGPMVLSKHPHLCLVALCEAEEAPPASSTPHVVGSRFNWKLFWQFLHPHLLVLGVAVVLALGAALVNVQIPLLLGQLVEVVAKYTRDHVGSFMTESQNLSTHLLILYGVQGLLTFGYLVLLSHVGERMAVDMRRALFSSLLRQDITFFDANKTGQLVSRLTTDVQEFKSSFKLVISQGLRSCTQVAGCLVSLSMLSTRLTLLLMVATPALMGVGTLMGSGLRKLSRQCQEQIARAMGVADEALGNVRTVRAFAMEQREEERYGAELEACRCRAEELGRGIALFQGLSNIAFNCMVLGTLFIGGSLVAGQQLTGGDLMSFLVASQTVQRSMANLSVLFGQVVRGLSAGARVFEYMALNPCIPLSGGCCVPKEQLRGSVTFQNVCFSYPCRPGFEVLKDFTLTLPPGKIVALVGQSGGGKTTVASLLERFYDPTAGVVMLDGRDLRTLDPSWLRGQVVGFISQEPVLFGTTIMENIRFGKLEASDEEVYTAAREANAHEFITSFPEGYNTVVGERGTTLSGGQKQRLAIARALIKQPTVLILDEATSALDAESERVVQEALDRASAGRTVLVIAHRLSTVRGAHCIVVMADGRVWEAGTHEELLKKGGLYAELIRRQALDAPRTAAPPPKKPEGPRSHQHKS
- Assay protocol: IA-DTB cysteine engagement
- Type: binding
- Condition label: 22Rv1 cells, 20 μM probe, 1 h, relative to DMSO
Measured quantity: % engagement ABCB8_C461 (%)

[[record]]
compound = "C=CC(=O)N1C[C@@H](c2ccc(Br)cc2)[C@H]1C(=O)Nc1cccc2cccnc12 [MY-1A]"
unit_annotation = "%"
val = "−3"

[[record]]
compound = "C=CC(=O)N1C[C@H](c2ccc(Br)cc2)[C@H]1C(=O)Nc1cccc2cccnc12 [MY-3B]"
unit_annotation = "%"
val = 66.5

[[record]]
compound = "C=CC(=O)N1C[C@H](c2ccc(Br)cc2)[C@@H]1C(=O)Nc1cccc2cccnc12 [MY-1B]"
unit_annotation = "%"
val = 0

[[record]]
compound = "C=CC(=O)N1C[C@H](c2ccc(Br)cc2)[C@H]1C(=O)Nc1cccc2cccnc12 [MY-3A]"
unit_annotation = "%"
val = 32.5


---

Recorded % engagement CBX1_C60, one value per entry.
- Target or system: CBX1_C60 (Homo sapiens, UniProt P83916)
- Construct: endogenous in cells; host or cells: 22Rv1
- Sequence (P83916 whole entry): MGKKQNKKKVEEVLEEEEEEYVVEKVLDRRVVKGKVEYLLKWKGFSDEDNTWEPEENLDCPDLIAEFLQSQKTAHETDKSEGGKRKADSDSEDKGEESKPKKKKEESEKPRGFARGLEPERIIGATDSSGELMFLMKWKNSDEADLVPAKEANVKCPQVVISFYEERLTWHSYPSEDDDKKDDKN
- Assay protocol: IA-DTB cysteine engagement
- Type: binding
- Condition label: 22Rv1 cells, 20 μM probe, 1 h, relative to DMSO
Measured quantity: % engagement CBX1_C60 (%)

[[record]]
molecule = "C=CC(=O)N1C[C@H](c2ccc(Br)cc2)[C@H]1C(=O)Nc1cccc2cccnc12 [MY-3B]"
unit_annotation = "%"
val = 75

[[record]]
molecule = "C=CC(=O)N1C[C@H](c2ccc(Br)cc2)[C@@H]1C(=O)Nc1cccc2cccnc12 [MY-1B]"
unit_annotation = "%"
val = "−14.5"

[[record]]
molecule = "C=CC(=O)N1C[C@H](c2ccc(Br)cc2)[C@H]1C(=O)Nc1cccc2cccnc12 [MY-3A]"
unit_annotation = "%"
val = 14.5

[[record]]
molecule = "C=CC(=O)N1C[C@@H](c2ccc(Br)cc2)[C@H]1C(=O)Nc1cccc2cccnc12 [MY-1A]"
unit_annotation = "%"
val = "−11.5"


---

- Target or system: C3orf33_C275 (Homo sapiens, UniProt Q6P1S2)
- Construct: endogenous in cells; host or cells: 22Rv1
- Sequence (Q6P1S2 whole entry): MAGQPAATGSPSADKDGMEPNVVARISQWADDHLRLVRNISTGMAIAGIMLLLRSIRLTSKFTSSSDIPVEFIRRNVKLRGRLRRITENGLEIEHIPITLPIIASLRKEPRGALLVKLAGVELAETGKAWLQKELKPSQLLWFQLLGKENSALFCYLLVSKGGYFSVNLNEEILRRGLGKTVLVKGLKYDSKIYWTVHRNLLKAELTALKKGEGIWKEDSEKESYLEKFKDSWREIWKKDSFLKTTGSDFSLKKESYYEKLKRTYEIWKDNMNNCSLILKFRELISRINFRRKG
- Assay protocol: IA-DTB cysteine engagement
- Assay type: binding
- Condition label: 22Rv1 cells, 20 μM probe, 1 h, relative to DMSO
Measured quantity: % engagement C3orf33_C275 (%)

[[record]]
molecule = "C=CC(=O)N1C[C@H](c2ccc(Br)cc2)[C@H]1C(=O)Nc1cccc2cccnc12 [MY-3B]"
unit_annotation = "%"
val = 84

[[record]]
molecule = "C=CC(=O)N1C[C@@H](c2ccc(Br)cc2)[C@H]1C(=O)Nc1cccc2cccnc12 [MY-1A]"
unit_annotation = "%"
val = 83.5

[[record]]
molecule = "C=CC(=O)N1C[C@H](c2ccc(Br)cc2)[C@H]1C(=O)Nc1cccc2cccnc12 [MY-3A]"
unit_annotation = "%"
val = 85

[[record]]
molecule = "C=CC(=O)N1C[C@H](c2ccc(Br)cc2)[C@@H]1C(=O)Nc1cccc2cccnc12 [MY-1B]"
unit_annotation = "%"
val = 83


---

- Target or system: PRAF2_C34 (Homo sapiens, UniProt O60831)
- Construct: endogenous in cells; host or cells: 22Rv1
- Sequence (O60831 whole entry): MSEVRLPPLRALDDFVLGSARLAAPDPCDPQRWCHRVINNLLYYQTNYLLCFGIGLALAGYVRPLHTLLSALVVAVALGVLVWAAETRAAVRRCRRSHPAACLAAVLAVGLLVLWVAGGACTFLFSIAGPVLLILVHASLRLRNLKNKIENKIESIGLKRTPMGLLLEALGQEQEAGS
- Assay protocol: IA-DTB cysteine engagement
- Format: binding
- Condition label: 22Rv1 cells, 20 μM probe, 1 h, relative to DMSO
% engagement PRAF2_C34: recorded values
Measured quantity: % engagement PRAF2_C34 (%)

[[record]]
compound = "C=CC(=O)N1C[C@H](c2ccc(Br)cc2)[C@H]1C(=O)Nc1cccc2cccnc12 [MY-3A]"
measured_quantity = "% engagement PRAF2_C34"
val = 55.5

[[record]]
compound = "C=CC(=O)N1C[C@H](c2ccc(Br)cc2)[C@@H]1C(=O)Nc1cccc2cccnc12"
measured_quantity = "% engagement PRAF2_C34"
val = 74

[[record]]
compound = "C=CC(=O)N1C[C@H](c2ccc(Br)cc2)[C@H]1C(=O)Nc1cccc2cccnc12 [MY-3B]"
measured_quantity = "% engagement PRAF2_C34"
val = 78.5

[[record]]
compound = "C=CC(=O)N1C[C@@H](c2ccc(Br)cc2)[C@H]1C(=O)Nc1cccc2cccnc12"
measured_quantity = "% engagement PRAF2_C34"
val = 76


---

- Target or system: APOOL_C79 (Homo sapiens)
- Construct: endogenous in cells; host or cells: 22Rv1
- Sequence (Q6UXV4 28-268): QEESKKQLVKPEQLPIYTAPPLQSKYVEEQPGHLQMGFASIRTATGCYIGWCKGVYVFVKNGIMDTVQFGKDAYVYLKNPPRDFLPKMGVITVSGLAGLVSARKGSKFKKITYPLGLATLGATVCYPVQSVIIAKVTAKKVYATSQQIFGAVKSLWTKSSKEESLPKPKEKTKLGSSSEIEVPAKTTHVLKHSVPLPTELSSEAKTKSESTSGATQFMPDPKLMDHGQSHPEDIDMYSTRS
- Assay protocol: IA-DTB cysteine engagement
- Assay type: binding
- Condition label: 22Rv1 cells, 20 μM probe, 1 h, relative to DMSO
In this section, each of the molecules is paired with its reported % engagement APOOL_C79.
Measured quantity: % engagement APOOL_C79 (%)

[[record]]
molecule = "C=CC(=O)N1C[C@@H](c2ccc(Br)cc2)[C@H]1C(=O)Nc1cccc2cccnc12 [MY-1A]"
val = 54.25

[[record]]
molecule = "C=CC(=O)N1C[C@H](c2ccc(Br)cc2)[C@@H]1C(=O)Nc1cccc2cccnc12 [MY-1B]"
val = 73

[[record]]
molecule = "C=CC(=O)N1C[C@H](c2ccc(Br)cc2)[C@H]1C(=O)Nc1cccc2cccnc12 [MY-3B]"
val = 69

[[record]]
molecule = "C=CC(=O)N1C[C@H](c2ccc(Br)cc2)[C@H]1C(=O)Nc1cccc2cccnc12 [MY-3A]"
val = 48


Each recorded value in this set is attributed to patent US20250034216A1.
